These entries and their values trace back to paper PMC3303126.

Molecular target: T1, Sac3-M (Sac3 250-563);Thp1;Sem1 (Saccharomyces cerevisiae;Saccharomyces …, UniProt P46674;Q08231;O94742 250-563;1-455;1-89, ||)
T1 sequence 1: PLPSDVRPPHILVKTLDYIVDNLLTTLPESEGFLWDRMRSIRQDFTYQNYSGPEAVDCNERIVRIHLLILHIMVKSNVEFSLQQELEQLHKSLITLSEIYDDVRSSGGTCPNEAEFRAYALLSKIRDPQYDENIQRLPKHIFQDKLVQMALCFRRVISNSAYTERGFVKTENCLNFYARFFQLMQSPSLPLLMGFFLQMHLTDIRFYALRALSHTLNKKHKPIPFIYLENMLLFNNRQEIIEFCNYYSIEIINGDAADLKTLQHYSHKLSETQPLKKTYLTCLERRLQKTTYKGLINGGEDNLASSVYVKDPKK
T1 sequence 2: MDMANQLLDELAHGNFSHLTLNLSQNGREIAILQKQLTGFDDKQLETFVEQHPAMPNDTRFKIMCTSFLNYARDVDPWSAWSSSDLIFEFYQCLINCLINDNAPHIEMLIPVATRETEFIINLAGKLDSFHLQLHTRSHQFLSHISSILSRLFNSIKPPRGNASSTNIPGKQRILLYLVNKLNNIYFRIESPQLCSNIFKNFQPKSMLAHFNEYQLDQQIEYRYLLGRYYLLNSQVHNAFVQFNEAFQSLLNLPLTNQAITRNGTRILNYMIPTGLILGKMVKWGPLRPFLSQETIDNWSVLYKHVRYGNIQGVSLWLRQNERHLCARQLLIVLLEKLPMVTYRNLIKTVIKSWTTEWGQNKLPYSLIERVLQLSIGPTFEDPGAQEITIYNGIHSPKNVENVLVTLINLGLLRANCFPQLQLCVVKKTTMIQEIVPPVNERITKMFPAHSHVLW
T1 sequence 3: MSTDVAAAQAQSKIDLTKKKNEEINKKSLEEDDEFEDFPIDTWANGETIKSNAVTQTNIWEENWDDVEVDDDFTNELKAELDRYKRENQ
Experiment: EMSA
observation type: pKd
Answers are plain numbers, as −log10 of the molar value.

Task: Which value of pKd has been reported for UUUUUUUUUUUUUUUUUUUUUUUUU (ssRNA) [polyU25 RNA] in the records?
Result: 6.76
